System: MDA-MB-231
ASSAY DETAILS: Antiproliferative activity against human MDA-MB-231 cells assessed as inhibition of cell viability after 72 hrs by CCK-8 assay
Assay type: functional, cell-based
TEST CONDITIONS: MDA-MB-231, 72 h
READOUT KIND: IC50 (µM)

Solved cases below.
>>> experimental_result("COc1ccccc1C1Oc2ccccc2-c2cc(OCc3ccccc3)c(OCc3ccccc3)cc21 (configuration not stated)")
9.15
>>> experimental_result("COc1cccc(C2Oc3ccccc3-c3cc(OC)ccc32)c1 (configuration not stated)")
18.6
>>> experimental_result("COc1ccc2c(c1)-c1ccccc1OC2c1ccccc1C (configuration not stated)")
7.41
>>> experimental_result("COc1ccc2c(c1)-c1ccccc1OC2c1ccccc1OC (configuration not stated)")
15.2

1 = COc1cccc(C2Oc3ccccc3-c3cc(OC)c(OC)cc32)c1 (configuration not stated)
2 = COc1cc2c(cc1OC)C(c1ccccc1OC)Oc1ccccc1-2 (configuration not stated)
3 = COc1ccc2c(c1)-c1ccccc1OC2c1cccc(OC)c1OC (configuration not stated)
# rank_down: sort by IC50, max first Please respond with the labels ordered as the question requires.
3, 1, 2
(3: 22.5 µM, 1: 13.8 µM, 2: 8.4 µM)
